# protocol_text: Metabolic stability in human liver microsomes assessed as compound remaining at 1 uM after 15 mins by LC/MS analysis
# Assay type: ADME, Microsome
# details: read-out: Stability
measurement_name: remaining at 0.25 h, 1 µM (%)

Example entries and their recorded answers appear below.
CCCCc1c(C(=O)NC2CCCc3ncn(C)c32)cnn1-c1ncc(C)c(-c2cccs2)n1 (centres undefined) | 22
CCCCc1c(C(=O)NCc2cnc(C)n2C)cnn1-c1ncc(C)c(-c2cccs2)n1 | 20

P = CCCCc1c(C(=O)NCc2cncn2C)cnn1-c1ncc(C)c(-c2cccs2)n1
Q = CCCCc1c(C(=O)NCc2c(C)ncn2C)cnn1-c1ncc(C)c(-c2cccs2)n1
-- ask Select one. Lower remaining at 0.25 h, 1 µM: P or Q The response must carry the label of the picked entry.
-- reply Q
(Q: 19%, P: 70%)
